experimental target: Escherichia coli DNA gyrase A/B tetramer (Escherichia coli, UniProt P0AES4+P0AES6)
test method notes: DNA gyrase supercoiling activity fluorescence polarisation assay
Format: biochemical
Procedure: […] When tested in an in-vitro assay based on the DNA gyrase supercoiling activity fluorescence polarisation assay described above, the E. coli DNA gyrase supercoiling IC50 assay inhibitory activity of the following Examples was measured at the indicated IC50.
pIC50: −log10 of the molar value.
Response key: class 1 means pIC50 >= 6; class 0 means pIC50 < 6.

I'd appreciate it if you could say whether C[C@@H]1CN2c3c(F)cc(C#Cc4cccnc4)cc3CC3(C(=O)NC(=O)NC3=O)[C@H]2[C@H](C)O1 (relative stereo) has pIC50 at least equal to 6. class 1

Now turn to the next compound.
I'd appreciate it if you could say whether CNC(=O)Nc1ccc2c(c1)CC1(C(=O)NC(=O)NC1=O)[C@H]1[C@H](C)O[C@H](C)CN21 (relative stereo) has pIC50 at least equal to 6. class 0

###

experimental target: Escherichia coli DNA gyrase A/B tetramer (Escherichia coli, UniProt P0AES4+P0AES6)
test method notes: DNA gyrase supercoiling activity fluorescence polarisation assay
Assay type: biochemical
pIC50: −log10 of the molar value.
Response key: Fulfilled means pIC50 >= 6; Not fulfilled means pIC50 < 6.

Answered cases to consult:
I'd appreciate it if you could say whether C[C@H]1CN2c3c(cc(C#Cc4cn(C)cn4)c(F)c3F)CC3(C(=O)NC(=O)NC3=O)[C@@H]2[C@@H](C)O1 (racemic) [Example 13] has pIC50 at least equal to 6. Not fulfilled

I'd appreciate it if you could say whether C[C@H]1CN2c3c(cc(C#Cc4cnccn4)c(F)c3F)CC3(C(=O)NC(=O)NC3=O)[C@@H]2[C@@H](C)O1 (relative stereo) [Example 20] has pIC50 at least equal to 6. Fulfilled

I'd appreciate it if you could say whether COCC(=O)N/N=C(\C)c1cc2c(c(F)c1F)N1C[C@@H](C)O[C@@H](C)[C@@H]1C1(C2)C(=O)NC(=O)NC1=O (relative stereo) [Example 55] has pIC50 at least equal to 6. Not fulfilled

I'd appreciate it if you could say whether C[C@@H]1CN2c3ccc(NC(=O)N4CCCCC4)cc3CC3(C(=O)NC(=O)NC3=O)[C@H]2[C@H](C)O1 (relative stereo) [Example 74] has pIC50 at least equal to 6. Not fulfilled

I'd appreciate it if you could say whether C[C@@H]1CN2c3cc(F)c(C#Cc4cc5ccccc5s4)cc3CC3(C(=O)NC(=O)NC3=O)[C@H]2[C@H](C)O1 (racemic) [Example 29] has pIC50 at least equal to 6. Not fulfilled

I'd appreciate it if you could say whether C[C@@H]1CN2c3cc(F)c(C#Cc4nc5ccccc5s4)cc3CC3(C(=O)NC(=O)NC3=O)[C@H]2[C@H](C)O1 (relative stereo) [Example 34] has pIC50 at least equal to 6. Not fulfilled

I'd appreciate it if you could say whether C[C@H]1CN2c3c(cc(C#C[Si](C)(C)C)c(F)c3F)CC3(C(=O)NC(=O)NC3=O)[C@@H]2[C@@H](C)O1 (relative stereo) [Example 6] has pIC50 at least equal to 6. Not fulfilled

I'd appreciate it if you could say whether C[C@@H]1CN2c3c(cc(C(=O)NC4CCN(C(=O)OC(C)(C)C)CC4)c(F)c3F)CC3(C(=O)NC(=O)NC3=O)[C@H]2[C@H](C)O1 (relative stereo) [Example 67] has pIC50 at least equal to 6. Not fulfilled

I'd appreciate it if you could say whether C[C@@H]1CN2c3ccc(NC(=O)Nc4ccccc4)cc3CC3(C(=O)NC(=O)NC3=O)[C@H]2[C@H](C)O1 (relative stereo) [Example 73] has pIC50 at least equal to 6. Not fulfilled

I'd appreciate it if you could say whether C[C@@H]1CN2c3ccc(C#C[Si](C)(C)C)cc3CC3(C(=O)NC(=O)NC3=O)[C@H]2[C@H](C)O1 (racemic) [Example 1] has pIC50 at least equal to 6. Not fulfilled

New cases:
I'd appreciate it if you could say whether C[C@@H]1CN2c3c(cc(C(=O)NC4CCOCC4)c(F)c3F)CC3(C(=O)NC(=O)NC3=O)[C@H]2[C@H](C)O1 (relative stereo) [Example 66] has pIC50 at least equal to 6. Not fulfilled

I'd appreciate it if you could say whether C/C(=N\Nc1cnccn1)c1cc2c(c(F)c1F)N1C[C@@H](C)O[C@@H](C)[C@@H]1C1(C2)C(=O)NC(=O)NC1=O (relative stereo) [Example 60] has pIC50 at least equal to 6. Fulfilled

I'd appreciate it if you could say whether C[C@@H]1CN2c3c(cc(C#Cc4cccnc4)c(F)c3F)CC3(C(=O)NC(=O)NC3=O)[C@H]2[C@H](C)O1 (relative stereo) [Example 18] has pIC50 at least equal to 6. Fulfilled

Where these numbers come from: patent US20100261719A1
